target: TLR7 (Homo sapiens (Human)); experiment: TLR7 human peripheral blood mononuclear cell (PBMC) cell-based assay (GS-986 as agonist; IL-6 and IFNα readout); settings: human PBMCs, TLR7 agonist GS-986 at 400 nM, 6 hours, antagonist potency; read-out: TLR-7 EC50
Sequence (Q9NYK1 27-1049): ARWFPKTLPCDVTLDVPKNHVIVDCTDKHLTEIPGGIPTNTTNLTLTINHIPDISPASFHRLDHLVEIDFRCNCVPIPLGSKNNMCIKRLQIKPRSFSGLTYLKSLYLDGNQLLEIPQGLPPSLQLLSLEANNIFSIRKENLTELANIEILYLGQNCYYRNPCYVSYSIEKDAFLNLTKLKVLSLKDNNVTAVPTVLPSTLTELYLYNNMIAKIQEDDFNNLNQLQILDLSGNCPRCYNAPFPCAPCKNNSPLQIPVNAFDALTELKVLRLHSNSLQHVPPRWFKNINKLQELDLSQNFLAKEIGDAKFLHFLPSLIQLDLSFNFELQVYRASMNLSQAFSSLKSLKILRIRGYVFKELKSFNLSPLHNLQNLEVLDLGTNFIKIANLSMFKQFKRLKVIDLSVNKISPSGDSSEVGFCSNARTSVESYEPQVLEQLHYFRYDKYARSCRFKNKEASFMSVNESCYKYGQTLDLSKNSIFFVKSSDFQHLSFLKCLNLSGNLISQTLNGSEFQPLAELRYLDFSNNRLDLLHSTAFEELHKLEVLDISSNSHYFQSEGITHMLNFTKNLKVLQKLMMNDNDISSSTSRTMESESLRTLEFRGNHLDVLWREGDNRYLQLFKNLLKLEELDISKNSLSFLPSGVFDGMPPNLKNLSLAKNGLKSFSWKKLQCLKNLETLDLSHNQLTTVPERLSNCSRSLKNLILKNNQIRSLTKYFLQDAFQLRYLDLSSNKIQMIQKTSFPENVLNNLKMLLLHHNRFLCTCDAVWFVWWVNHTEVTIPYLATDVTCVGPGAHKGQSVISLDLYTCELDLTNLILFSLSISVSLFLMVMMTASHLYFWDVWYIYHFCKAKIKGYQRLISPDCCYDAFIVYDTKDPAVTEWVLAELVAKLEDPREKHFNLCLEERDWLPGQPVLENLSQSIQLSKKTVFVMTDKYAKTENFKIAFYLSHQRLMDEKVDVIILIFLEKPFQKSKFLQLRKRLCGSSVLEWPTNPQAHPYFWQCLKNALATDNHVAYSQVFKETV
Label satisfied when EC50 is strictly below 1 nM; otherwise label not satisfied.

> print(dat)
                                   compound  category.label
1  Cc1c(-c2cnc3c(c2)CNCC3)sc2[nH]c(-c3cc(C)c4ncnn4c3)c(C(C)C)c12   not satisfied
2  Cc1c(C2CCN(C(=O)[C@H]3C[C@@H](F)CN3)CC2)sc2[nH]c(-c3cc(C)c4ncnn4c3)c(C(C)C)c12       satisfied
3  Cc1c(-c2[nH]c3sc([C@@H]4C[C@@H]5C[C@H]4CN5CC(=O)NC4CC4)c(C)c3c2C(C)C)cn2ncnc2c1C   not satisfied
4  Cc1c(-c2[nH]c3sc(C4CC(c5nnc([C@H]6COCCN6)o5)C4)c(C)c3c2C(C)C)cn2ncnc2c1C (single isomer, unassigned) [Example 241]   not satisfied
5  Cc1c(-c2[nH]c3sc(C4CC5(CCN(CCS(C)(=O)=O)C5)C4)c(C)c3c2C(C)C)cn2ncnc2c1C (single isomer, unassigned) [Example 314]   not satisfied
6  Cc1c(-c2[nH]c3sc([C@@H]4C[C@@H]5C[C@H]4CN5CC(=O)N[C@H]4C[C@@H](O)C4)c(C)c3c2C(C)C)cn2ncnc2c1C       satisfied

---

target: TLR7 (Homo sapiens (Human)); assay: TLR7 human peripheral blood mononuclear cell (PBMC) cell-based assay (GS-986 as agonist; IL-6 and IFNα readout); details: human PBMCs, TLR7 agonist GS-986 at 400 nM, 6 hours, antagonist potency; read-out: TLR-7 EC50
pEC50: −log10 of the molar value.
experimental_endpoint: pEC50

> print(dat)
                                    compound  experimental.endpoint  value.qualifier  observed
 1  Cc1c(C2CC23CCNCC3)sc2[nH]c(-c3cc(C)c4ncnn4c3)c(C(C)C)c12 (centres unmarked)                  pEC50                =      9.03
 2  Cc1c(-c2[nH]c3sc(C4CCC5(CC4)CNCCO5)c(C)c3c2C(C)C)cn2ncnc2c1C (single isomer, unassigned) [Example 292]                  pEC50                =     10.05
 3  Cc1c(-c2[nH]c3sc(C4CCN(C(=O)[C@H]5C[C@@]6(CN(CCO)CCO6)C5)CC4)c(C)c3c2C(C)C)cn2ncnc2c1C                  pEC50                =     10.22
 4  Cc1c(-c2[nH]c3sc(C4CCN(C(=O)[C@H]5C[C@@]6(CN(CC(F)F)CCO6)C5)CC4)c(C)c3c2C(C)C)cn2ncnc2c1C                  pEC50                >     10.30
 5  Cc1c(C2CCC(C(=O)N3CCNCC3)CC2)sc2[nH]c(-c3cc(C)c4ncnn4c3)c(C(C)C)c12 (centres unmarked)                  pEC50                =      9.60
 6  Cc1c(-c2[nH]c3sc(C4CCN(C(=O)[C@@H]5CNCCO5)CC4)c(C)c3c2C(C)C)cn2ncnc2c1C                  pEC50                >     10.30
 7  Cc1c(CC2CCN(CC(N)=O)CC2)sc2[nH]c(-c3cc(C)c4ncnn4c3)c(C(C)C)c12                  pEC50                =      8.63
 8  Cc1c(-c2[nH]c3sc(C4C[C@@H]5C[C@H]4CN5CC(=O)N4CCC4)c(C)c3c2C(C)C)cn2ncnc2c1C (some centres unmarked)                  pEC50                >     10.30
 9  Cc1c(-c2[nH]c3sc(C45CCN(CCS(C)(=O)=O)CC4C5)c(C)c3c2C(C)C)cn2ncnc2c1C (centres unmarked)                  pEC50                =      8.90
10  Cc1c(C2CCCN(CC(N)=O)CC2)sc2[nH]c(-c3cc(C)c4ncnn4c3)c(C(C)C)c12 (centres unmarked) [Example 161]                  pEC50                =      9.89
11  Cc1c([C@H]2C[C@H]3C[C@@H]2CN3CC(N)=O)sc2[nH]c(-c3cc(C)c4ncnn4c3)c(C(C)C)c12                  pEC50                =     10.05
12  Cc1c(C2CCN(C(=O)N3CCNCC3)CC2)sc2[nH]c(-c3cc(C)c4ncnn4c3)c(C(C)C)c12                  pEC50                =     10.30
13  Cc1cc(-c2[nH]c3sc(S(=O)(=O)N4CCNCC4)cc3c2C(C)C)cn2ncnc12                  pEC50                =      7.67
14  Cc1c(-c2[nH]c3sc([C@@H]4C[C@@H]5C[C@H]4CN5C4CCS(=O)(=O)C4)c(C)c3c2C(C)C)cn2ncnc2c1C (some centres unmarked)                  pEC50                =      9.15

Provenance of the data: patent US11661431B2
